biological target: Lp-PLA2 enzyme in human plasma (Homo sapiens, UniProt Q13093); construct: from tissue; host or cells: mixed (pooled) human plasma; test: Assay of Lp-PLA2 in human plasma (Thio-PAF assay); assay type: biochemical
property-label: IC50 (nM)
Respond numerically; units are nM and should not be typed.

input: Find the measured IC50 of O=c1nc(OCc2ccc(F)c(F)c2)cc2n1CC13CCC(CC1)N23 and report it.
output: 15.8

input: Find the measured IC50 of O=c1nc(OCc2cccc(F)c2F)cc2n1CC13CCC(CC1)N23 and report it.
output: 100

input: Indicate the recorded IC50 value for this compound: O=c1nc(OCc2ccc(F)cc2)cc2n1CC13CCC(CC1)N23
output: 25.1

---

So I've got a bunch of molecules here, and I need their IC50 values.
Target: recombinant human Lp-PLA2 enzyme (Homo sapiens)
Sequence (Q13093 22-441): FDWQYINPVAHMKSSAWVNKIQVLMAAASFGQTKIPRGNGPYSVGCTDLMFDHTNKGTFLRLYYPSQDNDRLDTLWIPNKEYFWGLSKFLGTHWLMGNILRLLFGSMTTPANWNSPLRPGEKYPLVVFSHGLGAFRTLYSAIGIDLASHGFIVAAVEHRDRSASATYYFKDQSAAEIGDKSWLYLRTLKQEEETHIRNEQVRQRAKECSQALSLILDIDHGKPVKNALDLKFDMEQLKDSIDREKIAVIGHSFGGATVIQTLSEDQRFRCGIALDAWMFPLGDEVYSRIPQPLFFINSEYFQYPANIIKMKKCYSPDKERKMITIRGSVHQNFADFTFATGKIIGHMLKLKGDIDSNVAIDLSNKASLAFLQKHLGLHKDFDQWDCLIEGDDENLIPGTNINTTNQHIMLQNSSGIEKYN
Test: Recombinant human Lp-PLA2 assay (rhLp-PLA2), PED6 assay
Assay type: biochemical
Settings: PED6 substrate; recombinant human Lp-PLA2 at 4 nM or 110 pM; 30-min pre-incubation; fluorescence ex 480/em 540; read-out: rhLp-PLA2 (pIC50) (converted)
Kindly provide the numeric value in nM only, without the unit symbol.

input: Complete the entry with IC50 for Cc1ccc(Oc2c(F)cc(COc3cc4n(c(=O)n3)CC35CCC(CC3)N45)cc2F)cn1
output: 0.0316

input: Find the measured IC50 of Cc1cc(Oc2c(F)cc(COc3cc4n(c(=O)n3)CC35CCC(CC3)N45)cc2F)ccn1 and report it.
output: 0.0398

input: Output measured IC50 for this item: Cc1cc(Oc2c(F)cc(COc3cc4n(c(=O)n3)CC35CCC(CC3)N45)cc2F)ccc1Cl
output: 0.0794

input: Give the reported IC50 for this molecule. O=c1nc(OCc2cc(F)c(Oc3ccc(Cl)c(C(F)(F)F)c3)c(F)c2)cc2n1CC13CCC(CC1)N23
output: 0.0631

input: Hello, please tell me recorded IC50 for this one: Cc1ncc(Oc2c(F)cc(COc3cc4n(c(=O)n3)CC35CCC(CC3)N45)cc2F)cn1
output: 0.1

input: Specify measured IC50 for O=c1nc(OCc2cc(F)c(Oc3ccc(C(F)(F)F)cc3)c(F)c2)cc2n1CC13CCC(CC1)N23 .
output: 0.0316

input: Give IC50 for the following molecule: O=c1nc(OCc2cc(F)c(Oc3ccc(C(F)(F)F)c(Cl)c3)c(F)c2)cc2n1CC13CCC(CC1)N23
output: 0.0794

input: Kindly indicate its recorded IC50. Item: Cc1ncc(Oc2c(F)cc(COc3cc4n(c(=O)n3)CC35CCCC(CC3)N45)cc2F)cn1 (centres unmarked)
output: 0.316

---

Please provide measured IC50 for the entries that follow.
molecular target: recombinant human Lp-PLA2 enzyme (Homo sapiens, UniProt Q13093); assay: Recombinant human Lp-PLA2 assay (rhLp-PLA2), PED6 assay; format: biochemical; settings: PED6 substrate; recombinant human Lp-PLA2 at 4 nM or 110 pM; 30-min pre-incubation; fluorescence ex 480/em 540; read-out: rhLp-PLA2 (pIC50) (converted)
Please respond with the number in nM and leave the unit unwritten.

input: Report measured IC50; entry is O=c1nc(OCc2cc(F)c(Oc3ccc(OC(F)(F)F)c(Cl)c3)c(F)c2)cc2n1CC13CCC(CC1)N23 [Compound 17]
output: 0.0794

input: Specify IC50 for O=c1nc(OCc2cc(F)c(Oc3ccnc(C(F)(F)F)c3)c(F)c2)cc2n1CC13CCC(CC1)N23 [Compound 4] and stop.
output: 0.0398

input: Dear colleague, please send me the reported IC50 for O=c1nc(OCc2cc(F)c(Oc3cnc(C(F)(F)F)nc3)c(F)c2)cc2n1CC13CCC(CC1)N23 [Compound 13] when you can.
output: 0.251

input: Note IC50 for the compound shown: O=c1nc(OCc2cc(F)c(Oc3ccc(C(F)(F)F)nc3)c(F)c2)cc2n1CC13CCC(CC1)N23 [Compound 6]
output: 0.0501

input: Provide measured IC50 value, entry: O=c1nc(OCc2cc(F)c(Oc3cccc(C(F)(F)F)c3)c(F)c2)cc2n1CC13CCC(CC1)N23 [Compound 11]
output: 0.0794

input: Tell me its IC50 given O=c1nc(OCc2cc(F)c(Oc3ccnc(C(F)(F)F)c3)c(F)c2)cc2n1CC13CCCC(CC1)N23 (stereo not shown) [Compound 18] as the entry.
output: 0.1

input: Specify reported IC50 for the compound shown: O=c1nc(OCc2cc(F)c(Oc3cccc(OC(F)(F)F)c3)c(F)c2)cc2n1CC13CCC(CC1)N23 [Compound 16]
output: 0.1

---

Target: Lp-PLA2 enzyme in human plasma (Homo sapiens, UniProt Q13093)
Construct: from tissue; host or cells: mixed (pooled) human plasma
Sequence (Q13093 22-441): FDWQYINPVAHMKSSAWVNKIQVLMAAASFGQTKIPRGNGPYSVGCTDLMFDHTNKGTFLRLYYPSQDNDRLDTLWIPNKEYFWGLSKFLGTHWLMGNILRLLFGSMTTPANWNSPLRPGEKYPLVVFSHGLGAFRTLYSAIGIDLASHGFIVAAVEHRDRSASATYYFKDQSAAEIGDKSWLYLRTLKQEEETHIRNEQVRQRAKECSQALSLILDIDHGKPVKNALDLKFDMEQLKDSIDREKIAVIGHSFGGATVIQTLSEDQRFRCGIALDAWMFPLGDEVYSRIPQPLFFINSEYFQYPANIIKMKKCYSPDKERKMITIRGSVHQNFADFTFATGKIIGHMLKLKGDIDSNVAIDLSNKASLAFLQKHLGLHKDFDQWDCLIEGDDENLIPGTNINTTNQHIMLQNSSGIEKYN
Assay: Assay of Lp-PLA2 in human plasma (Thio-PAF assay)
Type: biochemical
Settings: mixed human plasma; 2-thio-PAF substrate with CPM; 30-min pre-incubation; fluorescence ex 380/em 485; read-out: Thio-PAF (pIC50) (converted)
property-label: IC50 (nM)
Form entry: value (nM) — number only.

input: Report IC50 for O=c1nc(OCc2cc(F)c(Oc3cccc(C(F)(F)F)c3)c(F)c2)cc2n1CC13CCC(CC1)N23 [Compound 11]
output: 12.6

input: Look up and report measured IC50 for this entry: O=c1nc(OCc2cc(F)c(Oc3cccc(OC(F)(F)F)c3)c(F)c2)cc2n1CC13CCC(CC1)N23 [Compound 16]
output: 12.6

input: Annotate the compound O=c1nc(OCc2cc(F)c(Oc3ccnc(C(F)(F)F)c3)c(F)c2)cc2n1CC13CCCC(CC1)N23 (stereo not drawn) [Compound 18] with its measured IC50.
output: 7.94

input: Please list IC50 recorded for the compound O=c1nc(OCc2cc(F)c(Oc3ccc(C(F)(F)F)cc3)c(F)c2)cc2n1CC13CCC(CC1)N23 [Compound 5]
output: 6.31

input: Give IC50 for O=c1nc(OCc2cc(F)c(Oc3ccc(C(F)(F)F)nc3)c(F)c2)cc2n1CC13CCC(CC1)N23 [Compound 6]
output: 7.94

input: Retrieve IC50 measured for Cc1ncc(Oc2c(F)cc(COc3cc4n(c(=O)n3)CC35CCCC(CC3)N45)cc2F)cn1 (stereo not drawn) [Compound 19] and print it.
output: 15.8

input: Return reported IC50. Input compound: O=c1nc(OCc2cc(F)c(Oc3cnc(C(F)(F)F)nc3)c(F)c2)cc2n1CC13CCC(CC1)N23 [Compound 13]
output: 20

input: Give the reported value of IC50 for this record: O=c1nc(OCc2cc(F)c(Oc3ccc(C(F)(F)F)c(Cl)c3)c(F)c2)cc2n1CC13CCC(CC1)N23 [Compound 14]
output: 7.94

input: Supply IC50 value. Item: Cc1cc(Oc2c(F)cc(COc3cc4n(c(=O)n3)CC35CCC(CC3)N45)cc2F)ccn1 [Compound 7]
output: 3.16

input: Please give measured IC50 of the following entry: Cc1ncc(Oc2c(F)cc(COc3cc4n(c(=O)n3)CC35CCC(CC3)N45)cc2F)cn1 [Compound 9]
output: 12.6

input: Given O=c1nc(OCc2cc(F)c(Oc3ccnc(C(F)(F)F)c3)c(F)c2)cc2n1CC13CCC(CC1)N23 [Compound 4] , respond with its IC50.
output: 3.98

input: Tell me IC50 reported for Cc1cc(Oc2c(F)cc(COc3cc4n(c(=O)n3)CC35CCC(CC3)N45)cc2F)ccc1Cl [Compound 12]
output: 10

input: For the compound Cc1ccc(Oc2c(F)cc(COc3cc4n(c(=O)n3)CC35CCC(CC3)N45)cc2F)cn1 [Compound 8] , report IC50.
output: 7.94

input: Identify measured IC50 associated with O=c1nc(OCc2cc(F)c(Oc3ccc(Cl)c(C(F)(F)F)c3)c(F)c2)cc2n1CC13CCC(CC1)N23 [Compound 10]
output: 7.94

input: Item O=c1nc(OCc2cc(F)c(Oc3ccc(OC(F)(F)F)c(Cl)c3)c(F)c2)cc2n1CC13CCC(CC1)N23 [Compound 17] : provide IC50
output: 10
